Tested on: HEK293
Experiment: maximal inhibition of ZIKV NS1 production (% inhibition); higher = stronger antiviral effect
Please go through the items and note down their maximal inhibition.
Give bare numbers.

1) CC(NCc1ccc2c(c1)nc(NC(=O)c1ccc(-c3cn[nH]c3)s1)n2CC(C)(C)O)C(C)(C)C (centres undefined) ... 101
2) CC[C@@]1([C@@H]2O[C@@H]([C@H]3O[C@@](O)(CO)[C@H](C)C[C@@H]3C)C[C@@H]2C)CC[C@H]([C@]2(C)CC[C@]3(C[C@H](O)[C@@H](C)[C@@H]([C@@H](C)[C@@H](OC)[C@H](C)C(=O)O)O3)O2)O1 ... 103
3) COc1cc([C@@H]2c3cc4c(cc3[C@@H](O[C@@H]3O[C@@H]5CO[C@@H](c6cccs6)O[C@H]5[C@H](O)[C@H]3O)[C@H]3COC(=O)[C@H]23)OCO4)cc(OC)c1O ... 100

// moving on: another record for maximal inhibition
Query maximal inhibition on HEK293 for `COC[C@H](NC(=O)c1cnc(C)s1)C(=O)N[C@@H](COC)C(=O)N[C@@H](Cc1ccccc1)C(=O)[C@@]1(C)CO1`
100

----------
System: HEK293
Test: cytotoxicity IC50 (ATP content, uninfected cells); higher = less cytotoxic
Conditions: infection: none
MEASURE_NAME: cytotoxicity IC50 (µM)
One number for each entry, in µM.

Below, 6 compounds whose answers are already recorded.
1) O=c1[nH]nc(Sc2ncc([N+](=O)[O-])s2)n1-c1ccc2c(c1)OCCO2 ... 12
2) CN(Cc1cnc2nc(N)nc(N)c2n1)c1ccc(C(=O)N[C@@H](CCC(=O)O)C(=O)O)cc1 ... 0.24
3) C1CCC(C(CC2CCCCN2)C2CCCCC2)CC1 (centres undefined) ... 50
4) Cc1ccc([N+](=O)[O-])[c]2c1[O][Hg]2 ... 9
5) O=C1C(Cl)=C(NCCN2CCOCC2)C(=O)c2ncccc21 ... 20
6) COc1cc2nc(N3CCN(C(=O)c4ccco4)CC3)nc(N)c2cc1OC ... 40

Quick request: cytotoxicity IC50 for each listed item, please.
1. O=C1CCc2ccc(OCCCCN3CCN(c4cccc(Cl)c4Cl)CC3)cc2N1
2. CO[C@@]12[C@H](COC(N)=O)C3=C(C(=O)C(C)=C(N)C3=O)N1C[C@@H]1N[C@@H]12
3. CN[C@@H]1C[C@H]2O[C@@](C)([C@@H]1OC)n1c3ccccc3c3c4c(c5c6ccccc6n2c5c31)C(=O)N[C@H]4O
4. [O-][n+]1ccccc1SSc1cccc[n+]1[O-]

20
73
100
0.16

----------
Would you mind telling me the reported maximal inhibition of each entry?
Test system: HEK293
Experiment: maximal inhibition of ZIKV NS1 production (% inhibition); higher = stronger antiviral effect
Give bare numbers.

1) O=C1C(SCCO)=C(SCCO)C(=O)c2ccccc21 ... 97
2) C=CCn1c(=O)c2cnc(Nc3ccc(N4CCN(C)CC4)cc3)nc2n1-c1cccc(C(C)(C)O)n1 ... 99

// below: maximal inhibition requested for another compound
Param readout = maximal inhibition; param system = HEK293; param query = `OCCN1CCN(CCCN2c3ccccc3Sc3ccc(C(F)(F)F)cc32)CC1` ; response: value
84

----------
Please respond with reported cytotoxicity IC50 for every item in the list.
Tested on: HEK293
Experiment: cytotoxicity IC50 (ATP content, uninfected cells); higher = less cytotoxic
Details: infection: none

Please review the entries below; each comes with its answer.
1. CC(C)COCC(CN(Cc1ccccc1)c1ccccc1)N1CCCC1 (stereo not given) ... > 100 µM
2. c1ccc2c(CCNc3ccc(Nc4ccncc4)cc3)c[nH]c2c1 ... > 100 µM
3. CC(C)c1cnn2c(NCc3ccccc3)cc(N[C@@H](CO)[C@H](O)CO)nc12 ... > 100 µM
4. CC[C@H]1CN2CCc3cc(OC)c(OC)cc3[C@@H]2C[C@@H]1C[C@H]1NCCc2cc(OC)c(OC)cc21 ... > 100 µM
5. CO[C@H]1C(=O)[C@]2(C)[C@@H](OC)C[C@H]3OC[C@@]3(OC(C)=O)[C@H]2[C@H](OC(=O)c2ccccc2)[C@]2(O)C[C@H](OC(=O)[C@H](O)[C@@H](NC(=O)OC(C)(C)C)c3ccccc3)C(C)=C1C2(C)C ... > 100 µM
6. C[C@@]12C(=O)OC(=O)[C@]1(C)[C@H]1CC[C@@H]2O1 ... > 100 µM
7. CN1CC[C@H](c2c(O)cc(O)c3c(=O)cc(-c4ccccc4Cl)oc23)[C@H](O)C1 ... > 100 µM
8. Cc1n[nH]c2ccc(-c3cncc(OC[C@@H](N)Cc4c[nH]c5ccccc45)c3)cc12 ... > 100 µM

Look up cytotoxicity IC50 for the entries below, preserving their order.
1. Nc1ccc(-c2ccc3ncc4ccc(=O)n(-c5cccc(C(F)(F)F)c5)c4c3c2)cn1
2. O=C1NCCc2[nH]c(-c3ccncc3)cc21
3. C[C@@H](Oc1cc(-n2cnc3ccc(CN4CCN(C)CC4)cc32)sc1C(N)=O)c1ccccc1C(F)(F)F
4. COC(=O)Nc1nc2cc(C(=O)c3cccs3)ccc2[nH]1
5. C#C[C@]1(OC(C)=O)CC[C@H]2[C@@H]3CCC4=C/C(=N/O)CC[C@@H]4[C@H]3CC[C@@]21CC

> 100 µM
> 100 µM
> 100 µM
> 100 µM
> 100 µM
